# tested system: TCPTP (Homo sapiens, UniProt P17706)
# Construct: host or cells: E. coli
# Sequence (P17706 1-415): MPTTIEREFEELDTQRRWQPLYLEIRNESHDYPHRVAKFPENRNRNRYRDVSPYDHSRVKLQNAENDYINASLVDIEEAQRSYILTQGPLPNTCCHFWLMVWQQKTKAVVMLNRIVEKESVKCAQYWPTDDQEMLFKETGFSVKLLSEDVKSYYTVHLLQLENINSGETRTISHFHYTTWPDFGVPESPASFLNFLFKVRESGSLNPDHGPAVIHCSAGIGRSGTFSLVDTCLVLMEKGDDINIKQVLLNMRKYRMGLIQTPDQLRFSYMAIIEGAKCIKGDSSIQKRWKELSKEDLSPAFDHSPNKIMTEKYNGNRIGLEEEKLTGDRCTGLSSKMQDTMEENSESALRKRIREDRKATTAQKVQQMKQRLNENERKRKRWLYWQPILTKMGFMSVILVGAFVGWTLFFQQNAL
# protocol text: Enzymatic assay with pNPP as substrate, TCPTP
# Assay type: biochemical
# assay context: pNPP substrate, pH 6.0, 37°C 30 min; read-out: IC50 TCPTP
pIC50: −log10 of the molar value.

{"smiles str": "O=C(CCCSc1nc2ccccc2s1)Nc1cccc2ccccc12", "pIC50": "< 4.60"}

Hey, just so you know, these numbers are from paper PMC5239439.
